Measured pIC50 by item
Molecular target: recombinant human MMP-1 (Homo sapiens, UniProt P03956)
Construct: made in house; host or cells: transfected HT-1080 cells (provided by Dr. Harold Welgus, Washington University)
Sequence (P03956 100-469): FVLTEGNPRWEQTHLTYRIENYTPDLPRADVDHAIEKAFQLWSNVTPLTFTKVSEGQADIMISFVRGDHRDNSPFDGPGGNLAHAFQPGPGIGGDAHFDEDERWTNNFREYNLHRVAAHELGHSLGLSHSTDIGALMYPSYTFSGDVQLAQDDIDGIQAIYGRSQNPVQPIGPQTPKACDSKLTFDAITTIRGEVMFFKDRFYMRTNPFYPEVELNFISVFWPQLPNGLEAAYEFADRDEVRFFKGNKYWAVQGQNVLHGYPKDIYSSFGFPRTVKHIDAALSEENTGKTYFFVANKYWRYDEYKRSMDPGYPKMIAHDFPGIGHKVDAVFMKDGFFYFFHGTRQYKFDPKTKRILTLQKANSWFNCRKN
Test: biochemical
Details: Inhibition Table B; read-out: MMP-1 IC50
pIC50: −log10 of the molar value. Counter-ions that a name gives are not always drawn.
MEASURED_METRIC: pIC50

[
  {
    "MOLECULE": "CC(C)(C)c1ccc(-c2ccc(S(=O)(=O)C3(C(=O)NO)CCOCC3)cc2)cc1 [Example 226]",
    "TEST_SYSTEM": "recombinant human MMP-1 (Homo sapiens, UniProt P03956)",
    "RELATION_SYMBOL": "<",
    "READING": 5.00
  },
  {
    "MOLECULE": "C#CCN1CCC(C(N)=O)(S(=O)(=O)c2ccc(Sc3ccccc3)cc2)CC1 [Example 445]",
    "TEST_SYSTEM": "recombinant human MMP-1 (Homo sapiens, UniProt P03956)",
    "RELATION_SYMBOL": "<",
    "READING": 5.00
  },
  {
    "MOLECULE": "O=C(NO)C1(S(=O)(=O)c2ccc(Oc3ccccc3)cc2)CCS(=O)(=O)CC1 [Example 110]",
    "TEST_SYSTEM": "recombinant human MMP-1 (Homo sapiens, UniProt P03956)",
    "RELATION_SYMBOL": "=",
    "READING": 5.57
  },
  {
    "MOLECULE": "C#CCN1CCC(C(=O)NO)(S(=O)(=O)c2ccc(Oc3cc(OC)cc(OC)c3)cc2)CC1 [Example 39, Monohydrochloride]",
    "TEST_SYSTEM": "recombinant human MMP-1 (Homo sapiens, UniProt P03956)",
    "RELATION_SYMBOL": "<",
    "READING": 5.00
  },
  {
    "MOLECULE": "O=Cc1cccc(-c2ccc(S(=O)(=O)C3(C(=O)NO)CCOCC3)cc2)c1 [Example 228]",
    "TEST_SYSTEM": "recombinant human MMP-1 (Homo sapiens, UniProt P03956)",
    "RELATION_SYMBOL": "=",
    "READING": 6.22
  },
  {
    "MOLECULE": "O=C(NO)C1(S(=O)(=O)c2ccc(Sc3ccccc3)cc2)CCS(=O)(=O)CC1 [Example 52]",
    "TEST_SYSTEM": "recombinant human MMP-1 (Homo sapiens, UniProt P03956)",
    "RELATION_SYMBOL": "<",
    "READING": 5.00
  },
  {
    "MOLECULE": "CC(=O)N1CCC(Oc2ccc(S(=O)(=O)C3(C(=O)NO)CCOCC3)cc2)CC1 [Example 107]",
    "TEST_SYSTEM": "recombinant human MMP-1 (Homo sapiens, UniProt P03956)",
    "RELATION_SYMBOL": "<",
    "READING": 5.00
  },
  {
    "MOLECULE": "Cl.O=C(NO)C1(S(=O)(=O)c2ccc(Sc3ccncc3)cc2)CCOCC1 [Example 104, Monohydrochloride]",
    "TEST_SYSTEM": "recombinant human MMP-1 (Homo sapiens, UniProt P03956)",
    "RELATION_SYMBOL": "<",
    "READING": 5.00
  },
  {
    "MOLECULE": "C[C@@H]1CN(C(=O)C2CCN(c3ccc(S(=O)(=O)C4(C(=O)NO)CCOCC4)cc3)CC2)C[C@H](C)O1 [Example 176]",
    "TEST_SYSTEM": "recombinant human MMP-1 (Homo sapiens, UniProt P03956)",
    "RELATION_SYMBOL": "<",
    "READING": 5.00
  },
  {
    "MOLECULE": "O=C(NCc1ccncc1)C1CCN(c2ccc(S(=O)(=O)C3(C(=O)NO)CCOCC3)cc2)CC1 [Example 195]",
    "TEST_SYSTEM": "recombinant human MMP-1 (Homo sapiens, UniProt P03956)",
    "RELATION_SYMBOL": "=",
    "READING": 5.00
  },
  {
    "MOLECULE": "C#CCN1CCC(C(=O)NO)(S(=O)(=O)c2ccc(SC3CCCC3)cc2)CC1 [Example 45, Monohydrochloride]",
    "TEST_SYSTEM": "recombinant human MMP-1 (Homo sapiens, UniProt P03956)",
    "RELATION_SYMBOL": "=",
    "READING": 5.06
  },
  {
    "MOLECULE": "O=C(O)CN1CCC(C(=O)NO)(S(=O)(=O)c2ccc(Sc3ccccc3)cc2)CC1 [Example 87, Monohydrochloride]",
    "TEST_SYSTEM": "recombinant human MMP-1 (Homo sapiens, UniProt P03956)",
    "RELATION_SYMBOL": "=",
    "READING": 5.14
  },
  {
    "MOLECULE": "NCCc1ccc(Oc2ccc(S(=O)(=O)C3(C(=O)NO)CCSCC3)cc2)cc1 [Example 116]",
    "TEST_SYSTEM": "recombinant human MMP-1 (Homo sapiens, UniProt P03956)",
    "RELATION_SYMBOL": "=",
    "READING": 5.63
  },
  {
    "MOLECULE": "O=C(NO)C1(S(=O)(=O)c2ccc(Sc3ccncc3)cc2)CCSCC1 [Example 119, Monohydrochloride]",
    "TEST_SYSTEM": "recombinant human MMP-1 (Homo sapiens, UniProt P03956)",
    "RELATION_SYMBOL": "<",
    "READING": 5.00
  },
  {
    "MOLECULE": "O=C(NOC1CCCCO1)C1(S(=O)(=O)c2ccc(F)cc2)CCOCC1 (stereo not shown) [Example 55]",
    "TEST_SYSTEM": "recombinant human MMP-1 (Homo sapiens, UniProt P03956)",
    "RELATION_SYMBOL": "=",
    "READING": 5.92
  },
  {
    "MOLECULE": "O=C(NO)C1(S(=O)(=O)c2ccc(Oc3ccc(F)c(Cl)c3)cc2)CCNCC1 [Example 84, Monohydrochloride]",
    "TEST_SYSTEM": "recombinant human MMP-1 (Homo sapiens, UniProt P03956)",
    "RELATION_SYMBOL": "=",
    "READING": 5.10
  }
]
